test system: A498 renal
Please state which outcome applies, choosing from true (active), false (inactive)

Qu. Assay outcome for `C/C(CC(=O)NNc1ccc([N+](=O)[O-])cc1)=N\Nc1ccc([N+](=O)[O-])cc1` : what was it?
Ans. false

Qu. Assay outcome for `C/C(=N\NC(=O)c1cccnc1)c1cccc(/C(C)=N/NC(=O)c2cccnc2)n1` : what was it?
Ans. false

Qu. Assay outcome for `COc1ccc(-c2cnc3ccnn3c2-c2cc(OC)c(OC)c(OC)c2)cc1` : what was it?
Ans. true

Qu. Assay outcome for `O=C1/C(=C\C(Cl)=C/c2ccc([N+](=O)[O-])cc2)SC(=S)N1CCc1ccc(O)cc1` : what was it?
Ans. false

Qu. Assay outcome for `Cn1ncc2c(/N=C/c3cccs3)[nH]c(=S)nc21` : what was it?
Ans. false

Qu. Assay outcome for `CN[C@]12CC3(C=CC(=O)C=C3)O[C@@]1(Cc1ccc(OC)cc1)N(C)C(=O)N2` : what was it?
Ans. false

All values here come from PubChem BioAssay (NCI).
